Tgt: UniProt:P47898
Sequence (P47898 whole entry): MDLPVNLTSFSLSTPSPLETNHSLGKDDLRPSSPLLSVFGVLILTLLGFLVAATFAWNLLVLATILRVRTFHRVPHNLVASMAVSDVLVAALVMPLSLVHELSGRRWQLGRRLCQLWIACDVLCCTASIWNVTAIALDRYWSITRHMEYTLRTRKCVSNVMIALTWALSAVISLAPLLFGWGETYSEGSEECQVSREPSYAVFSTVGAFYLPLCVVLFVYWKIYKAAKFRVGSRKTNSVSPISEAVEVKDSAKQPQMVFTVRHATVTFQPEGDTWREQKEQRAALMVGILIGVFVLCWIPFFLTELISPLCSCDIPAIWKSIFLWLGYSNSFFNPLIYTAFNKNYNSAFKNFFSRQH
Test: PDSP radioligand binding, 5HT5A
Condition details: read-out: % inhibition at 10 µM; single concentration 10 µM
Quick rule for you: inhibition at 10 µM at 20% or higher means Criterion met, lower means Criterion not met.

Compound	Qualitative label
CNC(=O)[C@@]12C[C@@H]1[C@@H](n1cnc3c(NC)nc(C#Cc4ccc(F)c(F)c4)nc31)[C@H](O)[C@@H]2O [Compound 5]	Criterion not met
O[C@@H]1[C@H](O)[C@@H]2C[C@@H]2[C@H]1n1cnc2c(NCc3cccc(Cl)c3)nc(C#Cc3ccc(F)c(F)c3)nc21 [Compound 6]	Criterion not met
O[C@@H]1[C@H](O)[C@@H]2C[C@@H]2[C@H]1n1cnc2c(NCc3cccc(Cl)c3)ncnc21 [Compound 7]	Criterion not met
CNC(=O)[C@@]12C[C@@H]1[C@@H](n1cnc3c(NCc4cccc(Cl)c4)nc(C#Cc4ccccc4Cl)nc31)[C@H](O)[C@@H]2O [Compound 3]	Criterion met
Fc1ccc(C#Cc2nc(NCc3cccc(Cl)c3)c3nc[nH]c3n2)cc1F [Compound 8]	Criterion not met
Clc1cccc(CNc2nc(Cl)nc3[nH]cnc23)c1 [Compound 9]	Criterion met
O[C@@H]1[C@H](O)[C@@H]2C[C@@H]2[C@H]1n1cnc2c(NC(C3CC3)C3CC3)nc(Cl)nc21 [Compound 10]	Criterion not met
CNC(=O)[C@@]12C[C@@H]1[C@@H](n1cnc3c(NCc4cccc(Cl)c4)nc(Cl)nc31)[C@H](O)[C@@H]2O [Compound 4]	Criterion met
CNC(=O)[C@@]12C[C@@H]1[C@@H](n1cnc3c(NCc4cccc(Cl)c4)nc(C#Cc4ccc(F)cc4)nc31)[C@H](O)[C@@H]2O [Compound 2]	Criterion met
